Tested on: Cryptosporidium hominis
experimental.protocol: Inhibition of Cryptosporidium hominis thymidylate synthase assessed as H2F formation at 500 uM preincubated for 30 mins followed by addition of radiolabelled CH2H4F and dUMP by HPLC-coupled flow scintillation analysis relative to control
Calls of active or inactive are those of the source. The calls are words filed in the database; no cut-off is given here.
reported.endpoint: inhibition

Study these solved cases before continuing.
{"compound": "OC(CNCc1ccc2c(c1)OCO2)COc1ccc(-c2ccccc2)cc1 (stereo unspecified)", "tested.target": "Cryptosporidium hominis", "inhibition": "87%"}
{"compound": "CCOC(=O)CNC(=O)CSc1nc2ccccc2c(=O)[nH]1", "tested.target": "Cryptosporidium hominis", "inhibition": "inactive"}
{"compound": "Cc1ccc(OCC(O)CNCc2ccc3c(c2)OCO3)cc1C (stereo unspecified)", "tested.target": "Cryptosporidium hominis", "inhibition": "55%"}
{"compound": "Cc1ccc(C)c(OCC(O)CNCc2ccc3c(c2)OCO3)c1C (stereo unspecified)", "tested.target": "Cryptosporidium hominis", "inhibition": "48%"}
{"compound": "Cc1ccccc1-n1c(=O)n(Cc2ccc(C(=O)O)cc2)c(=O)c2[nH]cnc21", "tested.target": "Cryptosporidium hominis", "inhibition": "< 5%"}

Lab note: need inhibition for COc1ccccc1OCC(O)CNCc1ccc2c(c1)OCO2 (stereo unspecified) on Cryptosporidium hominis, anyone have it?
< 5%

Reported inhibition for Cryptosporidium hominis, given CC(=O)c1ccc(OCC(O)CNCc2ccc3c(c2)OCO3)cc1 (stereo unspecified) ?
55%

Give recorded inhibition with Cryptosporidium hominis for the following compound: COc1cc(C(C)=O)ccc1OCC(O)CNCc1ccc2c(c1)OCO2 (stereo unspecified)
20%

Which measured inhibition belongs to CCCCNC1N=C(c2ccccc2)c2ccccc2N(C)C1=O (stereo unspecified) , tested on Cryptosporidium hominis?
15%

API: value(readout= inhibition, system= Cryptosporidium hominis, query= OC(CNCc1ccc2c(c1)OCO2)COc1ccc(-c2csnn2)cc1 (stereo unspecified) )
76%

API: value(readout=inhibition, system=Cryptosporidium hominis) for record OC(CNCc1ccc2c(c1)OCO2)CSc1ccccc1 (stereo unspecified)
34%

Request body: readout inhibition, system Cryptosporidium hominis, query OC(CNCc1ccc2c(c1)OCO2)COc1ccc(Br)cc1 (stereo unspecified) . Return the value.
26%

Please tell me: inhibition of OC(CNCc1ccc2c(c1)OCO2)CSc1cccs1 (stereo unspecified) , system Cryptosporidium hominis?
43%

Record lookup: for Cryptosporidium hominis, what inhibition belongs to COc1ccc(Cn2c(=O)c3[nH]cnc3n(-c3cccc([S+](C)[O-])c3)c2=O)cc1 (stereo unspecified) ?
< 5%

Return inhibition measured with Cryptosporidium hominis given this compound: COc1cc(C(=O)O)ccc1OCC(O)CNCc1ccc2c(c1)OCO2 (stereo unspecified)
< 5%

Param readout = inhibition; param system = Cryptosporidium hominis; param query = OC(CNCc1ccc2c(c1)OCO2)COc1ccc(Cl)c(Cl)c1 (stereo unspecified) ; response: value
83%

Entry COc1cc(NC(=O)NCc2cccnc2)cc(C(F)(F)F)c1 , system Cryptosporidium hominis: what inhibition was measured?
46%

Cryptosporidium hominis / inhibition / Cc1cc(Cl)cc(Br)c1OCC(O)CNCc1ccc2c(c1)OCO2 (stereo unspecified) : value?
83%

API: value(readout= inhibition, system= Cryptosporidium hominis, query= CC(C)(CC(=O)O)CC(=O)NCc1c(Cl)cccc1Oc1ccccc1 )
inactive

Please provide the recorded inhibition for OC(CNCc1ccc2c(c1)OCO2)COc1ccc(F)cc1 (stereo unspecified) , tested on Cryptosporidium hominis.
7%

Form entry - test system: Cryptosporidium hominis; read-out: inhibition; compound: O=C(O)CCC(=O)Nc1ccc(S(=O)(=O)Nc2ccc(C(F)(F)F)cc2)cc1
inactive

Sourced from ChEMBL document CHEMBL4622933
